- Tested on: DU-145 prostate
- assay: NCI-60 one-dose screen, 48 h (100 = growth as untreated, 0 = no growth, -100 = all killed)
- run conditions: 10 µM unless noted
The panel holds about 83,000 compounds, 20% with a hit somewhere; the sample as a whole holds those more often.
Assign 1 to entries whose growth meets or exceeds 20%; assign -1 to the rest.

>>> group_label("O=C(CCC(=O)c1nc2ncccc2[nH]1)NN1C(=O)CSC1c1ccc(Cl)cc1 (stereo unspecified)")
1
>>> group_label("COc1ccccc1-n1c(-c2cc(O)ccc2C)cn2c3c(=O)[nH]c(=O)n(C)c3nc12")
1
>>> group_label("CCC/C(=N\\NC(N)=O)C(OC)OC")
1
>>> group_label("O=C1/C(=C/c2ccccc2)CN(C(=O)c2cccnc2)C/C1=C\\c1ccccc1")
-1
>>> group_label("COc1ccc2nc(Cl)c(/C=C/C(=O)c3ccc(NC(=O)CSc4nnc(-c5ccc(Cl)c(Cl)c5)n4-c4ccccc4)cc3)cc2c1")
1
>>> group_label("O=C(N/N=C/c1ccc(Cl)cc1Cl)c1ccc2nc(-c3ccc(Cl)cc3)[nH]c2c1")
1
>>> group_label("CS(=O)(=O)Cc1cnc(C2OCCO2)s1")
1
>>> group_label("COc1cc(C(=O)c2c(N)ncn2-c2ccccc2)cc(OC)c1OC")
1
>>> group_label("Cc1[nH]c(C(=O)Nc2ccc(C(N)=O)cc2NC(C)C)c(Cl)c1Cl")
1
>>> group_label("CCOC(=O)/C=C/c1c(C)[nH]c(=O)[nH]c1=O")
1
>>> group_label("CCCCCCCCNc1cc2c3c(c1)CCCN3CCC2")
-1
>>> group_label("CCOC(=O)Cn1c(=O)c2c3ccccc3n(C)c2n2nnc(-c3ccccc3)c12")
1
>>> group_label("COc1cc2ncnc(Nc3ccc(F)c(Cl)c3)c2cc1OCC(=O)N1CCN(c2ccc(F)cc2)CC1")
1
>>> group_label("O=C1/C(=C/c2ccccc2[N+](=O)[O-])COc2ccc(O)cc21")
-1
>>> group_label("Nc1c(C(=O)Nc2ccncc2)sc2nc3c(cc12)CCCCC3")
1
>>> group_label("COc1ccc(/C=C/C(=O)c2cc3c(N)c(C(=O)Nc4ccc(OC)cc4)sc3nc2C)cc1")
-1
>>> group_label("COC(=O)C1=Nc2ccc(F)cc2/C1=C\\c1sc(Nc2ccc(O)cc2)nc1O")
1
>>> group_label("N=C(N)c1ccc(-c2ccc(-c3ccc(F)cc3)s2)s1")
-1
>>> group_label("Cc1ccc(-c2nc(C(Cl)Cl)nc3cc(C)nn23)cc1")
-1
>>> group_label("N#C/C(=C\\c1ccc(Br)cc1)c1cc2ccccc2[nH]1")
1
>>> group_label("CCCCCCCCn1ccc2cc(NC(=O)Cn3cc(CN4CCOCC4)nn3)ccc21")
1
>>> group_label("CCOC(=O)C1CCN(c2ccc(N3C[C@@H](CNCc4ccc(C(=N)N)cc4)OC3=O)cc2)CC1")
1
>>> group_label("Cc1cccc(N2CCN(C(=S)c3ccc4c(c3)OCO4)CC2)c1")
-1
>>> group_label("C=CC(=O)N1CCN(c2ccc3cccc(NC(=O)c4cnc(C)cn4)c3n2)CC1")
1
>>> group_label("CCOC(=O)C(=Cc1cccc(C#N)c1)C(=O)OCC")
1
>>> group_label("CC(C)c1ccc(C(=O)Nc2sc3cc(O)ccc3c2C#N)cc1")
1
>>> group_label("CCSC1=CC(=O)c2ccccc2C1=O")
1
>>> group_label("Cc1ccc(S(=O)(=O)n2cc(C3C(Cl)C(=O)N3c3ccc(N4CCOCC4=O)cc3)c3ccccc32)cc1 (stereo unspecified)")
1
>>> group_label("CC1(C)CC2=C3C=C[C@@H]4[C@@]5(C)CC[C@H](O)C(C)(C)[C@@H]5CC[C@@]4(C)[C@]3(C)CC[C@@]2(C(=O)O)CC1=O")
1
>>> group_label("CCNC(=O)Oc1ccc(/C(=C(/C)Cc2ccc(OC)cc2)c2ccc(OCCN3CCCC3)cc2)cc1")
1
>>> group_label("COc1cc(C2C3=C(COC3=O)N(CCO)c3cc4c(cc32)OCCO4)cc(OC)c1OC (stereo unspecified)")
-1
>>> group_label("CCCCCCCCn1ccc2cc(NC(=O)Cn3cc(CN4CCCCCC4)nn3)ccc21")
1
>>> group_label("COc1ccc(-c2cc(C(=O)N3N=C(c4ccc(N)cc4)CC3c3ccccc3)c3ccccc3n2)cc1 (stereo unspecified)")
1
>>> group_label("COc1ccc(Cl)cc1Nc1nc(C(F)(F)F)ccc1C(=O)N/N=C/c1ccccc1Cl")
-1
>>> group_label("Oc1c(I)cc(-c2nc3ccccc3s2)cc1CN(Cc1ccccn1)Cc1ccccn1")
1
>>> group_label("COc1cccc(/C=C/C(=O)c2cc3c(N)c(C(=O)Nc4cccc(Cl)c4C)sc3nc2C)c1")
-1
>>> group_label("CN(C)Cc1ccc(C(=O)Nc2ccc3ncnc(Nc4ccc(Oc5cccc(F)c5)c(Cl)c4)c3c2)cc1")
-1
>>> group_label("COc1cccc(C(=O)OCC(O)C(=O)NC23CC4CC(CC(C4)C2)C3)c1 (stereo unspecified)")
1
>>> group_label("COc1ccc(-c2ccc(-c3ccc(C(=N)N)cn3)s2)cc1")
1
>>> group_label("NC(CSC(c1ccccc1)(c1ccccc1)c1ccc2c(c1)OCO2)C(=O)O (stereo unspecified)")
-1
>>> group_label("O=C(CCCCl)NNc1nccc(Nc2ccc(S(=O)(=O)Nc3ccncc3)cc2)n1")
1

// provenance: PubChem BioAssay (NCI)
